Please go through the items and note down their growth.
- Test system: 786-0 renal
- Protocol text: NCI-60 one-dose screen, 48 h (100 = growth as untreated, 0 = no growth, -100 = all killed)
- Experimental parameters: 10 µM unless noted
This is part of a sample that, as a whole, favours compounds with a hit. Of some 83,000 tested, about 20% had one in any assay.
Give bare numbers, in %.

Batch request: growth for each of the following molecules.
1. Nc1c(C(=O)Nc2ccccn2)sc2nc3c(cc12)CCCC3
2. COC(=O)c1ccc2c(c1)NC(=O)[C@@H]1CCCN21
3. O=c1cc(/C=N\Nc2nc(-c3ccc(Cl)cc3Cl)cs2)c2cc(Cl)ccc2o1
4. C=C1C(=O)O[C@H]2[C@H]1CC/C(COC(=O)c1cccnc1)=C\CC[C@@]1(C)O[C@@H]21
5. COc1cc2c(cc1OCCCOc1cc3c(cc1OC)C(=O)N1CC(F)(F)C[C@H]1C=N3)N=C[C@@H]1CC(F)(F)CN1C2=O

1. 48.7
2. 97.8
3. 96.9
4. 63.8
5. -22.8

###

- System: COLO 205 colon
- Protocol text: NCI-60 one-dose screen, 48 h (100 = growth as untreated, 0 = no growth, -100 = all killed)
- Experimental parameters: 10 µM unless noted
Compounds without any hit were thinned out: in the full panel of roughly 83,000, 20% have a hit.
Please go through the items and note down their growth.
Give bare numbers, in %.

Recorded results for 5 molecules are shown here.
- COc1ccc2[nH]c(=O)c(/C=C/C(=O)c3ccccc3OC)cc2c1: 20.4
- C#C[C@@]1(O)[C@@H](CO)O[C@@H](n2cc(I)c3c(N)ncnc32)[C@@H]1O: -50.2
- CC(C)(C)c1ccc(O)c(Cc2cc(C(C)(C)C)ccc2O)c1: 110
- COc1ccc2nc(-c3ccc(OC)c(OC)c3)cc(-c3nnc(SCC(=O)Nc4ccc(C(C)=O)cc4)o3)c2c1: 116
- N#Cc1nc(-c2ccccc2)oc1S(=O)(=O)NCC(c1ccc(Cl)cc1)N1CCCCC1 (stereo not given): 79.3

Batch request: growth for each of the following molecules.
1. C#CCN1C(=O)c2ccccc2N(CC#C)C12CCN(Cc1cn(CC(=O)Nc3ccccc3C(N)=O)nn1)CC2
2. O=C(CCl)N1CCCc2ccccc21
3. COc1ccc(Sc2[nH]c(C(C)=O)c3ccccc23)cc1
4. Cc1cc(C)nc(NS(=O)(=O)c2ccc(Nc3ccc4c5c(n(CCCN(C)C)c(=O)c4c3)-c3ccccc3C5=O)cc2)n1

[99.9, 108, -31.2, 70.4]

The molecule listed as "O=Cc1[nH]c(Sc2ccccc2)c2ccccc12" shows growth equal to 64.8

###

- Tested on: CCRF-CEM leukemia
- Protocol text: NCI-60 one-dose screen, 48 h
- Experimental parameters: 10 µM unless noted
The panel holds about 83,000 compounds, 20% with a hit somewhere; the sample as a whole holds those more often. Activity calls are given as the source filed them. How the source made its calls: active means growth percent below 10; inactive means the rest.
# output must be one of label 1 for active, label 0 for inactive

// below: answered compounds
- N#Cc1c(-c2ccc(F)cc2)nc(N/N=C/c2cccc(O)c2)nc1N1CCOCC1: label 0
- O=c1nc(-c2ccccc2)c2cc(-c3ccc(N4CCCC4)nc3)ccc2[nH]1: label 0
- COc1ccc(C(=O)c2cc(OC)c(C)c(OC)c2)cc1OC(=O)CCl: label 0

Kindly provide the recorded test outcome for the following compound: "C=C1C(=O)O[C@H]2[C@H]1CC/C(COC(=O)CCC(=O)OC/C1=C/CC[C@@]3(C)O[C@H]3[C@H]3OC(=O)C(=C)[C@@H]3CC1)=C\CC[C@@]1(C)O[C@@H]21"
label 1

Kindly provide the recorded test outcome for the following compound: "CCOC(=O)c1c(C)nc2c(c1N)/C(=C/c1cccs1)C(=O)N2c1ccc(OC)cc1"
label 0

Kindly provide the recorded test outcome for the following compound: "COc1ccc(Cc2nc(C#N)c(N3CCN(c4ccc(F)cc4)CC3)o2)cc1"
label 0

Kindly provide the recorded test outcome for the following compound: "CCCCc1ccc(N=Nc2ccc(OCC[N+](C)(C)C)cc2)cc1"
label 0

Kindly provide the recorded test outcome for the following compound: "COC(=O)c1ccc(NC(=O)CSc2nc(-c3ccc(F)cc3)nc3ccccc23)cc1"
label 0

Kindly provide the recorded test outcome for the following compound: "C=C1C(=O)O[C@H]2[C@H]1CCC(/C=N/c1ncc(Br)cc1N)=C\CC[C@@]1(C)O[C@@H]21"
label 1

Kindly provide the recorded test outcome for the following compound: "COc1ccc(NC(=O)c2ccc(Nc3ncnc4[nH]c(C)c(C)c34)cc2)cc1"
label 0

Kindly provide the recorded test outcome for the following compound: "CC(C)(C)c1nc2c(s1)c1nc(N)ncc1c1ccc(NS(=O)(=O)c3c(F)cccc3F)c(F)c12"
label 0

Kindly provide the recorded test outcome for the following compound: "Cc1cc(C)n(-c2nc(-c3cccs3)c(C#N)c(=O)[nH]2)n1"
label 0

Kindly provide the recorded test outcome for the following compound: "C[C@H]1[C@H](C)CC[C@]2(C(=O)OCCOCCOCC[P+](c3ccccc3)(c3ccccc3)c3ccccc3)CC[C@]3(C)C(=CC[C@@H]4[C@@]5(C)CC[C@H](OC(=O)C(Cl)Cl)C(C)(C)[C@@H]5CC[C@]43C)[C@H]12"
label 1

Kindly provide the recorded test outcome for the following compound: "COc1ccc(/C=C/C(=O)c2ccc(NC(=O)CSc3nnc(-c4ccc(OC)c(OC)c4)n3-c3ccccc3)cc2)cc1"
label 1

Kindly provide the recorded test outcome for the following compound: "COC(=O)CCc1cc(O)c2c(c1)[C@@H](C(=O)OC)[C@H](c1ccc(O)c(O)c1)O2"
label 0

Kindly provide the recorded test outcome for the following compound: "Fc1ccc(N/N=C/c2ccc(-n3cccn3)cc2)cc1"
label 0

Kindly provide the recorded test outcome for the following compound: "Nc1c(C(=O)Nc2ccccn2)sc2nc3c(cc12)CCCCCC3"
label 1

Kindly provide the recorded test outcome for the following compound: "NC(=O)C(O)(c1ccccc1)c1ccccc1"
label 0
